// cross-study collection: IC50 for Cathepsin S (Homo sapiens)

The cases that follow already have their IC50 on record.
Per the records, this molecule ( CO[C@@H]1C[C@H](S(=O)(=O)c2ccc(-c3cnn(C)c3)cc2C(F)(F)F)C[C@H]1C(=O)NC1(C#N)CCN(C)CC1 (racemic) ) has IC50 equal to 1.8 nM

Per the records, this molecule ( "COC[C@H]1C[C@@H](NC(=O)c2nc(-c3cc(C#N)ccc3OC3CC3)co2)CN1C#N" ) has IC50 equal to > 300000 nM

Per the records, this molecule ( N#CC1(NC(=O)C2(NC(=O)c3cc4ccc(-c5ccc(C(O)C(N)=O)cc5)cc4o3)CCC(F)(F)CC2)CC1 (centres unmarked) ) has IC50 equal to 170 nM

Per the records, this molecule ( N#CC1(NC(=O)[C@@H]2C[C@@H](S(=O)(=O)c3ccccc3Cl)C[C@H]2OCc2ccc(Cl)cc2)CC1 (racemic) ) has IC50 equal to 5.8 nM

Per the records, this molecule ( "CS(=O)(=O)c1nc(-c2ccc3cc(C(=O)NC4(C(=O)NC5(C#N)CC5)CCCCC4)oc3c2)cs1" ) has IC50 equal to 969 nM

Per the records, this molecule ( "N#CCNC(=O)[C@@H]1C[C@@H](S(=O)(=O)CC2CC2)C[C@H]1C(=O)N1CCOCC1" ) has IC50 equal to 230 nM

More entries:
Per the records, this molecule ( CO[C@@H]1C[C@H](S(=O)(=O)c2ccc(Cl)cc2Cl)C[C@H]1C(=O)NCC#N (racemic) ) has IC50 equal to 20 nM

Per the records, this molecule ( "CO[C@@H]1C[C@H](S(=O)(=O)c2ccc(-c3cnn(C)c3)cc2C(F)(F)F)C[C@H]1C(=O)NC1(C#N)CC1" ) has IC50 equal to 0.4 nM
